experiment: in vivo; parameters: species or system mice; conditions: male, NODSCID 1L2RγKO, mouse, iv, total radioactivity, Spleen uptake
Reported values of tissue uptake at 72 h for individual entries
Assay Readout: tissue uptake at 72 h (%ID/g)

molecule="COc1ccc(CCCC(=O)NCC(=O)N[C@@H](CCCCNC(=O)CN2CCN(CC(=O)O)CCN(CC(=O)O)CCN(CC(=O)O)CC2)C(=O)NC[C@H]2CC[C@H](C(=O)N[C@@H](Cc3c4ccccc4cc4ccccc34)C(=O)NCCCC[C@H](NC(=O)N[C@@H](CSCC(=O)O)C(=O)O)C(=O)O)CC2)cc1 [177Lu-HTK04048, metal not drawn]" result_number=0.62
molecule="O=C(O)CCC[C@H](NC(=O)N[C@@H](CCCCNC(=O)[C@H](Cc1c2ccccc2cc2ccccc12)NC(=O)[C@H]1CC[C@H](CNC(=O)CN2CCN(CC(=O)O)CCN(CC(=O)O)CCN(CC(=O)O)CC2)CC1)C(=O)O)C(=O)O [177Lu-HTK03149, metal not drawn]" result_number=0.14

###

test: in vivo; set-up: species or system mice; conditions: male, NODSCID 1L2RγKO, mouse, iv, total radioactivity, Heart uptake
Reported values of tissue uptake at 4 h for individual entries
Assay Readout: tissue uptake at 4 h (%ID/g)

compound="O=C(O)CCC[C@H](NC(=O)N[C@@H](CCCCNC(=O)[C@H](Cc1c2ccccc2cc2ccccc12)NC(=O)[C@H]1CC[C@H](CNC(=O)[C@H](CCCCNC(=O)CN2CCN(CC(=O)O)CCN(CC(=O)O)CCN(CC(=O)O)CC2)NC(=O)CNC(=O)CCCc2ccc(Cl)cc2)CC1)C(=O)O)C(=O)O [177Lu-HTK03153, metal not drawn]" endpoint_unit=%ID/g result_number=4.26
compound="COc1ccc(CCCC(=O)NCC(=O)N[C@@H](CCCCNC(=O)CN2CCN(CC(=O)O)CCN(CC(=O)O)CCN(CC(=O)O)CC2)C(=O)NC[C@H]2CC[C@H](C(=O)N[C@@H](Cc3c4ccccc4cc4ccccc34)C(=O)NCCCC[C@H](NC(=O)N[C@@H](COCC(=O)O)C(=O)O)C(=O)O)CC2)cc1 [177Lu-HTK04028, metal not drawn]" endpoint_unit=%ID/g result_number=2.67
compound="COc1ccc(CCCC(=O)NCC(=O)N[C@@H](CCCCNC(=O)CN2CCN(CC(=O)O)CCN(CC(=O)O)CCN(CC(=O)O)CC2)C(=O)NC[C@H]2CC[C@H](C(=O)N[C@@H](Cc3c4ccccc4cc4ccccc34)C(=O)NCCCC[C@H](NC(=O)N[C@@H](CSCC(=O)O)C(=O)O)C(=O)O)CC2)cc1 [177Lu-HTK04048, metal not drawn]" endpoint_unit=%ID/g result_number=2.99

###

assay: in vivo; settings: male, NODSCID 1L2RγKO, mouse, iv, total radioactivity, Kidneys uptake
I would appreciate it if you labelled entries true (1) when tissue uptake at 1 h is 3 %ID/g or higher, otherwise false (0).

compound="O=C(O)CCC[C@H](NC(=O)N[C@@H](CCCCNC(=O)[C@H](Cc1ccc2ccccc2c1)NC(=O)[C@H]1CC[C@H](CNC(=O)CN2CCN(CC(=O)O)CCN(CC(=O)O)CCN(CC(=O)O)CC2)CC1)C(=O)O)C(=O)O [68Ga-HTK03169, metal not drawn]" label_value="false (0)"
compound="O=C(O)CCC[C@H](NC(=O)N[C@@H](CCCCNC(=O)[C@H](Cc1cccc(I)c1)NC(=O)[C@H]1CC[C@H](CNC(=O)CN2CCN(CC(=O)O)CCN(CC(=O)O)CCN(CC(=O)O)CC2)CC1)C(=O)O)C(=O)O [68Ga-HTK04053, metal not drawn]" label_value="true (1)"
compound="O=C(O)CCCCC(NC(=O)N[C@@H](CCCCNC(=O)[C@H](Cc1c2ccccc2cc2ccccc12)NC(=O)[C@H]1CC[C@H](CNC(=O)CN2CCN(CC(=O)O)CCN(CC(=O)O)CCN(CC(=O)O)CC2)CC1)C(=O)O)C(=O)O (single isomer, unassigned) [68Ga-HTK03189A, metal not drawn]" label_value="false (0)"
compound="O=C(O)CCC[C@H](NC(=O)N[C@@H](CCCCNC(=O)[C@H](Cc1c2ccccc2cc2ccccc12)NC(=O)c1ccc(NC(=O)CN2CCN(CC(=O)O)CCN(CC(=O)O)CCN(CC(=O)O)CC2)cc1)C(=O)O)C(=O)O [68Ga-HTK04041, metal not drawn]" label_value="true (1)"
compound="O=C(O)C[C@H](NC(=O)N[C@@H](CCCCNC(=O)[C@H](Cc1c2ccccc2cc2ccccc12)NC(=O)[C@H]1CC[C@H](CNC(=O)CN2CCN(CC(=O)O)CCN(CC(=O)O)CCN(CC(=O)O)CC2)CC1)C(=O)O)C(=O)O [68Ga-HTK03161, metal not drawn]" label_value="true (1)"
compound="O=C(O)CCC[C@H](NC(=O)N[C@@H](CCCCNC(=O)[C@H](Cc1c2ccccc2cc2ccccc12)NC(=O)Cc1ccc(CNC(=O)CN2CCN(CC(=O)O)CCN(CC(=O)O)CCN(CC(=O)O)CC2)cc1)C(=O)O)C(=O)O [68Ga-HTK04036, metal not drawn]" label_value="true (1)"
compound="O=C(O)CC[C@H](NC(=O)N[C@@H](CCCCNC(=O)[C@H](Cc1c2ccccc2cc2ccccc12)NC(=O)[C@H]1CC[C@H](CNC(=O)CN2CCN(CC(=O)O)CCN(CC(=O)O)CCN(CC(=O)O)CC2)CC1)C(=O)O)C(=O)O [68Ga-HTK03041, metal not drawn]" label_value="true (1)"
compound="O=C(O)COC[C@H](NC(=O)N[C@@H](CCCCNC(=O)[C@H](Cc1c2ccccc2cc2ccccc12)NC(=O)[C@H]1CC[C@H](CNC(=O)CN2CCN(CC(=O)O)CCN(CC(=O)O)CCN(CC(=O)O)CC2)CC1)C(=O)O)C(=O)O [68Ga-HTK03187, metal not drawn]" label_value="false (0)"
